Tested on: NCI-H23 lung
Assay: NCI-60 one-dose screen, 48 h
Details: 10 µM unless noted
This is part of a sample that, as a whole, favours compounds with a hit. Of some 83,000 tested, about 20% had one in any assay. The source made the active and inactive calls. How the source made its calls: active means growth percent below 10; inactive means the rest.
Pick one and only one: class 1 for active, class 0 for inactive

>>> classassignment("N#C/C(=C1/C(=O)Nc2ccccc21)c1nnc(NC(=O)c2ccc(-n3c(=O)[nH]c4ccccc4c3=O)cc2)s1")
"class 0"

Moving on to another molecule below.
*Q* Dear all, I need the recorded test outcome for O=C(O)CC1S/C(=N/N=C/c2nc3ccccc3s2)NC1=O (centres undefined) , thank you.
*A* class 0

* * *

System: MDA-MB-231 breast
Experiment: NCI-60 one-dose screen, 48 h (100 = growth as untreated, 0 = no growth, -100 = all killed)
Details: 10 µM unless noted
The panel holds about 83,000 compounds, 20% with a hit somewhere; the sample as a whole holds those more often.
Class (by growth) -- small value = under 30%, mid value = from 30% up to 60%, large value = 60% and over

# example entries with known answers
>>> classassignment("Cc1nc(Nc2ccccn2)sc1C1=NNC(c2ccccc2F)C1 (stereo not drawn)")
"mid value"
>>> classassignment("CCCCC[C@@H]1C/C=C(\\C)[C@@H](O)C(C)(C)C(=O)[C@@H](C)/C=C(\\C)[C@@H]2C[C@H](O)C[C@](O)(CC(=O)O1)O2")
"large value"
>>> classassignment("Oc1ccc(F)c(Nc2nc(SCCN3CCOCC3)nc3c2cnn3CC(Cl)c2ccc(Br)cc2)c1 (stereo not drawn)")
"small value"
>>> classassignment("COc1ccc2[nH]c(=O)c(CSc3ccccc3Nc3nccc(-c4ccc5c(c4)OCO5)n3)cc2c1")
"large value"
>>> classassignment("CN1C(=O)C2(C(C#N)=C(c3ccc(Cl)cc3)Nc3c2c(-c2ccccc2)nn3-c2ccccc2)c2ccccc21 (stereo not drawn)")
"mid value"
>>> classassignment("O=C(Cn1c(/C=C/c2ccc([N+](=O)[O-])cc2)nc2ccccc2c1=O)Nc1ccccc1")
"mid value"

*Q* Determine which band this compound sits in: COc1ccc(C2=Nc3c(N)nc(N)nc3NC(c3ccc(Oc4nc(Nc5ccc(F)cc5)nc(N(C)C)n4)c(OC)c3)C2)cc1 (stereo not drawn)
*A* mid value

*Q* Determine which band this compound sits in: Cn1cc(-c2cc(N)n3nc(-c4c[nH]c5ccccc45)cc3n2)c2cc(Cl)ccc21
*A* small value

*Q* Determine which band this compound sits in: N#Cc1ccc(C(=O)CSc2nc3c(c(Nc4ccc(S(N)(=O)=O)cc4)n2)CCC3)cc1
*A* small value

*Q* Determine which band this compound sits in: COc1ccc(N=Nc2c(N)nn3c(N)c(C#N)c(-c4ccccc4)nc23)cc1
*A* small value

*Q* Determine which band this compound sits in: Cc1ccccc1Nc1nnc(-c2c[nH]c3ccccc23)o1
*A* small value

* * *

Tested on: SR leukemia
Experiment: NCI-60 one-dose screen, 48 h
Settings: 10 µM unless noted
This is part of a sample that, as a whole, favours compounds with a hit. Of some 83,000 tested, about 20% had one in any assay. Activity calls are given as the source filed them. The calls were made as follows: active = growth percent below 10; inactive = the rest.
Pick one and only one: true (1) = active, false (0) = inactive

# example entries with known answers
>>> classassignment("Fc1ccc(F)c(CNc2nc(SCCN3CCOCC3)nc3c2cnn3CC(Cl)c2ccc(Br)cc2)c1 (configuration not stated)")
"true (1)"
>>> classassignment("CC(=O)c1c2c(c3ccc4c5ccccc5ccc4n13)C(=O)c1ccccc1C2=O")
"false (0)"
>>> classassignment("Cc1ccc(C(=O)Nc2cc(-n3ccnc3)cc(C(F)(F)F)c2)cc1-n1cc(-c2cnc3cccnn23)nn1")
"false (0)"
>>> classassignment("Nc1cc2ccccc2c(=O)n1NC(=O)c1ccccc1")
"false (0)"
>>> classassignment("COc1ccc(-c2nc3ccccc3n2CC(=O)N=Nc2c(O)[nH]c3ccc(OC)cc23)cc1")
"true (1)"
>>> classassignment("O=C(/C=C1\\C(=O)N(Cc2ccccc2)c2ccccc21)c1cc2ccccc2oc1=O")
"false (0)"
>>> classassignment("N#C/C(=C/c1ccc([N+](=O)[O-])cc1)c1nnc(NC(=O)c2ccc(-n3c(=O)[nH]c4ccccc4c3=O)cc2)s1")
"false (0)"
>>> classassignment("Cn1cc(-c2cc3nc(-c4cn(C)c5ncccc45)cc(N)n3n2)c2cc(F)ccc21")
"true (1)"
>>> classassignment("CN1CCN(c2ccc3c4c(cccc24)C(=O)N(c2cccc(-c4nn(-c5ccccc5)cc4-c4nc5ccccc5s4)c2)C3=O)CC1")
"true (1)"
>>> classassignment("COc1cc(C2CC(c3ccc(C(F)(F)F)cc3)=Nc3c(N)nc(N)nc3N2)ccc1Oc1nc(Nc2ccc(F)cc2)nc(N(C)C)n1 (configuration not stated)")
"true (1)"

*Q* Dear all, I need the recorded test outcome for c1n[nH]cc1-c1nc2ccc3cn[nH]c3c2c2c1CCCC2 , thank you.
*A* false (0)

*Q* Dear all, I need the recorded test outcome for CC[C@]12C=CCN3CC[C@]4(C(=C(C(=O)OC)C1)Nc1cc(OC)c([C@@H]5[C@H]6O[C@H]6[C@@]6(CC)CC(C(=O)OC)=C7Nc8cc(OC)ccc8[C@@]78CCN5[C@@H]68)cc14)[C@@H]32 , thank you.
*A* true (1)

*Q* Dear all, I need the recorded test outcome for COc1cc2cc(C(=O)N3C[C@@H](CCl)c4c3cc(OC(=O)N(CCC(=O)N3CCN(C)CC3)[C@H]3CCSSC3)c3ccccc43)[nH]c2c(OC)c1OC , thank you.
*A* true (1)
